TEST_DESCRIPTION: chemical genetic growth profiling, strain panel (AID 1159580);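 further: tested at 20 µM; growth read once vehicle control cultures reached saturation at 30 °C; 1 = growth at the plate median or of vehicle wells; lower values mean less growth of the strain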
CONDITIONS_USED: S. cerevisiae deletion strains, growth OD, locus YNL071W, strain lat1, hits give low values
Hit rate of the full screen: of about 5,500 compounds, about 2,000 (36%) were called active. About 18% were inconclusive and are not listed. The list shows a part of the results.
Kindly supply the reported normalized growth values for the records listed here.
One number for each entry.

- MOLECULE: "Cc1ccc(S(=O)(=O)NC(=O)NN2CCCCCC2)cc1"
  MEASURED_ENDPOINT: "normalized growth"
  VALUE: 0.99
- MOLECULE: "O=C(NC(=O)c1ccccc1Cl)Nc1ccc(OC(F)(F)F)cc1"
  MEASURED_ENDPOINT: "normalized growth"
  VALUE: 1.05
- MOLECULE: "C[C@]12CCC(=O)C=C1C=CC1C2CC[C@@]2(C)C1CC[C@@]21CCC(=O)O1 (some centres undefined)"
  MEASURED_ENDPOINT: "normalized growth"
  VALUE: 0.927
- MOLECULE: "CCCCCCCCC(=O)NCc1ccc(O)c(OC)c1"
  MEASURED_ENDPOINT: "normalized growth"
  VALUE: 0.976

Hi there! I need normalized growth for each item below, if you can.
1. CC[C@@H](C(=O)C(C)[C@@H](O)[C@H](C)CCc1ccc(C)c(O)c1C(=O)O)C1OC(CC)(C2CC[C@](O)(CC)[C@H](C)O2)C[C@@H]1C (some centres undefined)
2. COc1cc([C@@H]2c3cc4c(cc3C(OC3O[C@@H]5COC(C)O[C@H]5[C@H](O)[C@H]3O)C3COC(=O)[C@@H]32)OCO4)cc(OC)c1O (some centres undefined)
3. C[C@]12CCC(=O)C=C1C=CC1C2CC[C@@]2(C)C1CC[C@@]2(O)CCC(=O)O (some centres undefined)
4. O=S(=O)(O)c1cc(N=C=S)ccc1/C=C/c1ccc(N=C=S)cc1S(=O)(=O)O
5. COc1ccc2c(c1)OC1(O)COc3cc(OC)c(OC)cc3C1=C2 (centres undefined)
6. CC(=O)S[C@@H]1CC2=CC(=O)CC[C@]2(C)[C@H]2CC[C@@]3(C)[C@@H](CC[C@@]34CCC(=O)O4)C12 (some centres undefined)
7. CC[C@@H]1C=C/C=C/C[C@H](C)[C@@H](O)[C@](C)(O)C(=O)[C@H](C)[C@@H](O)[C@H](C)C(=O)[C@H](C)[C@@H](O)[C@H](C)/C=C/C(=O)O[C@H]2[C@@H](C)[C@@H](CC1)O[C@@]1(CC[C@@H](C)[C@@H](C[C@H](C)O)O1)[C@@H]2C
8. CCN(CC)Cc1ccc(Nc2ccnc3cc(Cl)ccc23)cc1O

1: 1.06; 2: 1.04; 3: 1.01; 4: 1.02; 5: 0.945; 6: 1.01; 7: 1.01; 8: 1.03

Hi there! I need normalized growth for each item below, if you can.
1. N=c1ccn2c(n1)OC1C(O)C(CO)OC12 (centres undefined)
2. CC1CCc2cc(F)cc3c(=O)c(C(=O)O)cn1c23 (centres undefined)

1. 1.02
2. 0.998

Cited source for all entries: PubChem BioAssay AID1159580
